- STUDY_SYSTEM: serum proteins
- EXPERIMENT: 90% serum, 30 kDa ultrafiltration, HPLC
Protein binding (%): recorded values
ASSAY_READOUT: Protein binding (%)

BINDER: GFCWYVCVYRNGVRVCYRRCT [SEQ ID NO: 54]
REPORTED: 99
--
BINDER: GFCWNICVYRNGVRVCHRRCN [SEQ ID NO: 262]
REPORTED: 88
--
BINDER: GFCWNVCAYRNGKRACYRRCN [SEQ ID NO: 411]
REPORTED: 86
--
BINDER: GFCWNVCVYRNGVRNCHRRCN [SEQ ID NO: 251]
REPORTED: 71
--
BINDER: GFCARVCVKRNGVRVCYRRCN [SEQ ID NO: 125]
REPORTED: 90
--
BINDER: GFCTYVCVKRNGVRKCYRRCN [SEQ ID NO: 195]
REPORTED: 95
--
BINDER: GFCWRACAYRNGVRACYRRCN [SEQ ID NO: 418]
REPORTED: 92
--
BINDER: GFCWYVCVYRNGVRTCYRRCN [SEQ ID NO: 45]
REPORTED: 98
--
BINDER: GFCWRVCHYSNGKRVCYRRCN [SEQ ID NO: 439]
REPORTED: 92
--
BINDER: GFCWYWCVYRNGVRVCYRRCN [SEQ ID NO: 20]
REPORTED: 99
--
BINDER: GFCWNVCVYRGGVRVCHRRCN [SEQ ID NO: 231]
REPORTED: 66
--
BINDER: GFCYRVCVYRNGVRTCYRRCN [SEQ ID NO: 209]
REPORTED: 89
--
BINDER: GFCARVCVYRNGVRSCYRRCN [SEQ ID NO: 122]
REPORTED: 81
--
BINDER: GFCWNVCLYRNGVRVCHRRCN [SEQ ID NO: 275]
REPORTED: 80
--
BINDER: GFCWNACARRNGVRVCYRRCN [SEQ ID NO: 407]
REPORTED: 88
